All values here come from PubChem BioAssay (NCATS).

- ASSAY SYSTEM: Cellular tumor antigen p53 (Homo sapiens) (UniProt P04637)
- Sequence (P04637 whole entry, looked up): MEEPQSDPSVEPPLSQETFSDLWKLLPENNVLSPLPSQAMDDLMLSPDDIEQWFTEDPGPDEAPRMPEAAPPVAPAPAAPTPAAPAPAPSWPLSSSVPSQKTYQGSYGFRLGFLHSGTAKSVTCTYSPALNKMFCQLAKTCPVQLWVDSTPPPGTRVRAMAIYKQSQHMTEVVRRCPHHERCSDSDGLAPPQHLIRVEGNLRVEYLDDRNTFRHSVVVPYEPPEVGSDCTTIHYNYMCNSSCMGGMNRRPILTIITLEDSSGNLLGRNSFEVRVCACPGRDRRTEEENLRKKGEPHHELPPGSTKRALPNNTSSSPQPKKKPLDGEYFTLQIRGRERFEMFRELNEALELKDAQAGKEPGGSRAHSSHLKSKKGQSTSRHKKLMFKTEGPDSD
- PROCEDURE DETAILS: Primary qHTS for small molecule compounds that upregulate eGFP-tagged delta133p53alpha (in N-terminal) cells. (AID 2060322);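 further: cells pre-induced with doxycycline then dosed without doxycycline; 0% = DMSO vehicle and 100% = reference activator; nearly all actives have a fitted effect of over 75% in size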
- RUN PARAMETERS: NCI-H358 eGFP-delta133p53alpha fluorescence, 24 h; stronger effect = higher value
Results filed as inconclusive are left out.
# activation per entry
Numbers only; they are read as %.

Consider the following illustrative entries.
INSERT INTO results (line_notation, observed_measurement) VALUES
  ('COC(=O)[C@@H](NC(=O)[C@H](CC(C)C)NC(=O)N(Cc1ccccc1)C[C@@H](O)[C@H](Cc1ccccc1)NC(=O)OC(C)(C)C)C(C)C', 19.7),
  ('COc1cccc(C)c1C(=O)O[C@@H]1C[C@H](O[C@H]2[C@H](O)C[C@H](O[C@@H]3CCC[C@H]4[C@H]3C=C[C@@H]3CCCC/C=C/[C@H]5C=C(C(=O)O)[C@@H](C)C[C@@]56OC(=O)C(=C6O)OC(=O)[C@@]34C)O[C@@H]2C)O[C@H](C)[C@H]1O', -5.34);

Pending compound:
stdin: Answer with the recorded activation of Cc1cc(OCCCS(C)(=O)=O)cc(C)c1-c1cccc(COc2ccc3c(c2)OC[C@H]3CC(=O)O)c1 only.
stdout: 5.3

###

- PROCEDURE DETAILS: BET inhibitor-based combinations targeting novel dependencies in MECOM-rearranged (r) AML: UCSD-AML1 cell line (AID 2202235); further: nearly all actives have a fitted effect of over 40% in size
- RUN PARAMETERS: UCSD-AML1 AML cells viability, CellTiter-Glo, 48 h; series mostly up to 46 µM
Records with an inconclusive call do not appear. Calls of active or inactive are those of the source. The call rests on the fitted dose curve; in most records, active means well fitted inhibition curve with a large enough effect; inconclusive means small, poorly fitted or top-dose-only effect; inactive means no such curve, though single readings can be large or run the other way.
Allowed answers: YES = active, NO = inactive

Study these solved cases before continuing.
INSERT INTO results (line_notation, discrete_label) VALUES
  ('CCc1cc2c(cc1N1CCC(N3CCOCC3)CC1)C(C)(C)c1[nH]c3cc(C#N)ccc3c1C2=O', 'NO'),
  ('O=C(Nc1ccc(Oc2ccnc3[nH]ccc23)c(F)c1)c1cccn(-c2ccc(F)cc2)c1=O', 'NO'),
  ('O=C(/C=C/C#Cc1cccc(NS(=O)(=O)c2ccccc2)c1)NO', 'YES'),
  ('Cc1ncc(-c2ccnc(Nc3ccc(S(C)(=O)=O)cc3)n2)n1C(C)C', 'YES'),
  ('COc1cc2c(N3CCN(C(=O)Nc4ccc(OC(C)C)cc4)CC3)ncnc2cc1OCCCN1CCCCC1', 'YES'),
  ('COc1cc2ncnc(-n3nc(-c4ccccn4)nc3N)c2cc1OC', 'YES'),
  ('CCCCOCCOc1nc(-c2ccc(C(=O)O)c(F)c2)sc1C', 'NO'),
  ('N[C@@H](CC(=O)N1CCn2c(nnc2C(F)(F)F)C1)Cc1cc(F)c(F)cc1F', 'NO');

stdin: Status in this test for COc1cc(N2CCC(O)CC2)ccc1Nc1cc(Nc2ccccc2S(=O)(=O)C(C)C)c2cc[nH]c2n1 ?
stdout: YES

stdin: Status in this test for CCC[C@H](N[C@H]1CCc2cc(F)cc(F)c2C1)C(=O)Nc1cn(C(C)(C)CNCC(C)(C)C)cn1 ?
stdout: NO

stdin: Status in this test for CC1(C)CCC(c2ccc(Cl)cc2)=C(CN2CCN(c3ccc(C(=O)NS(=O)(=O)c4ccc(N[C@H](CCN5CCOCC5)CSc5ccccc5)c(S(=O)(=O)C(F)(F)F)c4)cc3)CC2)C1 ?
stdout: YES

stdin: Status in this test for COc1ccc(N(C)c2nc(C)nc3ccccc23)cc1 ?
stdout: YES

stdin: Status in this test for COc1cc2ncnc(Nc3cc(Br)c(O)c(Br)c3)c2cc1OC ?
stdout: YES

stdin: Status in this test for CC(=O)NCCC(=O)N[C@@H](CCC(N)=O)C(=O)N[C@@H](CO)C(=O)N[C@@H](CCC(N)=O)C(=O)N[C@@H](CCC(N)=O)C(=O)N[C@H](C(=O)N[C@@H](Cc1ccccc1)C(=O)N[C@]1(C)CCCCCCC=CCCC[C@@](C)(C(=O)N[C@@H](CCC(N)=O)C(=O)N[C@@H](CC(N)=O)C(N)=O)NC(=O)[C@H](CC(C)C)NC(=O)[C@H](CC(C)C)NC(=O)[C@@H](CCCNC(=N)N)NC(=O)[C@H](Cc2c[nH]c3ccccc23)NC(=O)[C@H](CC(C)C)NC(=O)[C@H](CC(N)=O)NC1=O)[C@H](C)O ?
stdout: NO

stdin: Status in this test for CCCOc1ccc2nc(NC(=O)OC)[nH]c2c1 ?
stdout: YES

stdin: Status in this test for COc1cc(SC)ccc1C(=O)N1CCC(Cc2ccccc2)CC1 ?
stdout: NO
